Test system: pentosidine formation
Protocol: Inhibitory effects of phenylene derivatives (II) on AGEs (pentosidine) formation
Assay type: biochemical
Design: concentration or dose not given beside the values
Experimental parameters: same method used in Test Example 1
Parameter: AGE Formation Inhibition Ratio (%)
Only the number, expressed in %, is required.

Given the compound O=C1NC(=O)C(c2ccc(CN(C(=O)c3ccc(-c4ccccc4)cc3)c3cccc(C(=O)O)c3)cc2)S1 (centres unmarked) and test system pentosidine formation, the measured AGE Formation Inhibition Ratio (%) is 98

Others:
Given the compound CS(=O)(=O)N(Cc1ccc(C2SC(=O)NC2=O)cc1)c1ccccc1 (centres unmarked) and test system pentosidine formation, the measured AGE Formation Inhibition Ratio (%) is 81

Given the compound CCCCCN(Cc1ccc(C2SC(=O)NC2=O)cc1)c1cccc(C(=O)O)c1 (centres unmarked) and test system pentosidine formation, the measured AGE Formation Inhibition Ratio (%) is 80

Given the compound O=C1NC(=O)C(c2ccc(CN(c3cccc(C(=O)O)c3)S(=O)(=O)c3ccc4ccccc4c3)cc2)S1 (centres unmarked) and test system pentosidine formation, the measured AGE Formation Inhibition Ratio (%) is 99

----------
Test system: pentosidine formation
Protocol: Inhibitory effects of phenylene derivatives (II) on AGEs (pentosidine) formation
Assay type: biochemical
Set-up: concentration or dose not given beside the values
Experimental parameters: same method used in Test Example 1
Parameter: AGE Formation Inhibition Ratio (%)
Only the number, expressed in %, is required.

Field AGE Formation Inhibition Ratio (%) (entry O=C1NC(=O)C(c2ccc(Cn3c(-c4ccccn4)nc4ccccc43)cc2)S1 (stereo not shown) [(II-15)] ) reads 80

Field AGE Formation Inhibition Ratio (%) (entry O=C1NC(=O)C(c2ccc(CN3C(=O)C4(CC4)Cc4ccc(C(=O)O)cc43)cc2)S1 (stereo not shown) [(II-30)] ) reads 87

Field AGE Formation Inhibition Ratio (%) (entry CC1CCc2ccc(C(=O)O)cc2N1Cc1ccc(C2SC(=O)NC2=O)cc1 (stereo not shown) [(II-7)] ) reads 87

Others:
Field AGE Formation Inhibition Ratio (%) (entry CCCCS(=O)(=O)N(Cc1ccc(C2SC(=O)NC2=O)cc1)c1cccc(C(=O)O)c1 (stereo not shown) [(II-11)] ) reads 89

Field AGE Formation Inhibition Ratio (%) (entry O=C(O)c1cccc(N(CC(=O)c2ccccc2)Cc2ccc(-c3ccccc3-c3nnn[nH]3)cc2)c1 [(II-42)] ) reads 93

----------
Tested on: pentosidine formation
Protocol: Inhibitory effects of phenylene derivatives (II) on AGEs (pentosidine) formation
Type: biochemical
Parameters: concentration or dose not given beside the values
Experimental parameters: same method used in Test Example 1
Recorded AGE Formation Inhibition Ratio (%), one value per entry.
Only the number, expressed in %, is required.

# example entries with known answers
Field AGE Formation Inhibition Ratio (%) (entry Cc1ccc(S(=O)(=O)N(Cc2ccc(C3SC(=O)NC3=O)cc2)c2cccc(C(=O)O)c2)cc1 (centres unmarked) ) reads 90

Field AGE Formation Inhibition Ratio (%) (entry O=C(O)c1cccc(N(Cc2ccc(-c3ccccc3-c3nnn[nH]3)cc2)C(=O)CCc2ccccc2)c1 ) reads 80

Field AGE Formation Inhibition Ratio (%) (entry O=C1NC(=O)C(c2ccc(CN(c3cccc(C(=O)O)c3)S(=O)(=O)c3ccccc3)cc2)S1 (centres unmarked) ) reads 85

Others:
Field AGE Formation Inhibition Ratio (%) (entry O=C1NC(=O)C(c2ccc(Cn3ccnc3-c3ccccc3)cc2)S1 (centres unmarked) ) reads 85

Field AGE Formation Inhibition Ratio (%) (entry O=C1NC(=O)C(c2ccc(CN(c3cccc(C(=O)O)c3)S(=O)(=O)c3ccc(-c4ccccc4)cc3)cc2)S1 (centres unmarked) ) reads 91

----------
Recorded AGE Formation Inhibition Ratio (%), one value per entry.
Test system: pentosidine formation
Protocol: Inhibitory effects of phenylene derivatives (II) on AGEs (pentosidine) formation
Format: biochemical
Parameters: concentration or dose not given beside the values
Experimental parameters: same method used in Test Example 1
Only the number, expressed in %, is required.

# example entries with known answers
Field AGE Formation Inhibition Ratio (%) (entry O=C1NC(=O)C(c2ccc(CN(C(=O)c3cccnc3)c3cccc(C(=O)O)c3)cc2)S1 (stereo not drawn) ) reads 80

Field AGE Formation Inhibition Ratio (%) (entry O=C1NC(=O)C(c2ccc(CN(Cc3ccc(-c4ccccc4)cc3)c3cccc(C(=O)O)c3)cc2)S1 (stereo not drawn) ) reads 80

Field AGE Formation Inhibition Ratio (%) (entry CCCCS(=O)(=O)N(Cc1ccc(C2SC(=O)NC2=O)cc1)c1ccccc1 (stereo not drawn) ) reads 80

Field AGE Formation Inhibition Ratio (%) (entry O=C1NC(=O)C(c2ccc(CN(C(=O)CCc3ccccc3)c3cccc(C(=O)O)c3)cc2)S1 (stereo not drawn) ) reads 92

Field AGE Formation Inhibition Ratio (%) (entry CCCC1CCc2ccc(C(=O)O)cc2N(Cc2ccc(C3SC(=O)NC3=O)cc2)C1=O (stereo not drawn) ) reads 84

Field AGE Formation Inhibition Ratio (%) (entry CCCc1cc2ccc(C(=O)O)cc2n(Cc2ccc(C3SC(=O)NC3=O)cc2)c1=O (stereo not drawn) ) reads 84

Others:
Field AGE Formation Inhibition Ratio (%) (entry O=C(O)c1cccc(N(CCc2ccccc2)Cc2ccc(-c3ccccc3-c3nnn[nH]3)cc2)c1 ) reads 81

Field AGE Formation Inhibition Ratio (%) (entry CS(=O)(=O)N(Cc1ccc(C2SC(=O)NC2=O)cc1)c1cccc(C(=O)O)c1 (stereo not drawn) ) reads 86

Field AGE Formation Inhibition Ratio (%) (entry Cc1oc(-c2ccccc2)nc1CC(=O)N(Cc1ccc(C2SC(=O)NC2=O)cc1)c1cccc(C(=O)O)c1 (stereo not drawn) ) reads 82

Field AGE Formation Inhibition Ratio (%) (entry CC1(C)Cc2ccc(C(=O)O)cc2N(Cc2ccc(C3SC(=O)NC3=O)cc2)C1=O (stereo not drawn) ) reads 86

Field AGE Formation Inhibition Ratio (%) (entry O=C1NC(=O)C(c2ccc(CN(C(=O)C3CCCCC3)c3cccc(C(=O)O)c3)cc2)S1 (stereo not drawn) ) reads 85

Field AGE Formation Inhibition Ratio (%) (entry Cc1nc(-c2ccc(S(=O)(=O)N(Cc3ccc(C4SC(=O)NC4=O)cc3)c3cccc(C(=O)O)c3)cc2)cs1 (stereo not drawn) ) reads 80

Data origin, for the record: patent US20120065198A2
